# experimental-target: HLA-B*3501 (human)
# test-description: competition vs 125I-labelled probe peptide, purified HLA, gel filtration
readout: pIC50
Note on units: pIC50 is unitless, being -log10 of a concentration expressed in mol/L.

Looking up FPQPPICTI (modifications not checked) [Her2/neu.941.F1] , I see its pIC50 listed as 6.44
